Target: CCK receptor (pancreas) (Rattus norvegicus)
Construct: The whole pancreas was dissected free of fat tissue and was homogenized
Sequence (P30551 whole entry): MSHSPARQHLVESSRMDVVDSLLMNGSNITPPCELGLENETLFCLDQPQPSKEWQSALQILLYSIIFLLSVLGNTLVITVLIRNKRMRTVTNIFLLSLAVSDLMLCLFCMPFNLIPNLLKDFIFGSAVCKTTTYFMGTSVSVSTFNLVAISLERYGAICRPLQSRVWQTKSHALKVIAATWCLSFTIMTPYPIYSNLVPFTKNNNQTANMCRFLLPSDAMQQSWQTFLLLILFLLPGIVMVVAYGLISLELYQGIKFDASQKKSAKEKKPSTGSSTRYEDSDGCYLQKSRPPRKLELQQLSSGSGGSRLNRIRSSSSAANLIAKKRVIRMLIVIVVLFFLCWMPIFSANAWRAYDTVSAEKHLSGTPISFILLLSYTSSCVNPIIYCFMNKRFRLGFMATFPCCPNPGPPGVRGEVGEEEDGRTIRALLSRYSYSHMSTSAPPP
Assay: CCK Receptor Binding (Pancreas), inhibition of 125I-CCK-8 binding
Settings: rat pancreas membranes, 50 pM 125I-CCK-8, pH 6.5, 25° C., 2 hours
pIC50: −log10 of the molar value.

# compound, pIC50
data = [
    ("CN1C(=O)C(NC(=O)Nc2cccc(C(=O)NS(=O)(=O)c3ccccc3)c2)N=C(c2ccncc2)c2ccccc21 (racemic)", 6.10),
    ("CC(C)S(=O)(=O)NC(=O)c1cccc(NC(=O)NC2N=C(c3ccncc3)c3ccccc3N(C)C2=O)c1 (racemic)", 5.79),
]

###

Molecular target: UniProtKB H0VZC5
Sequence (H0VZC5 entry or part of it): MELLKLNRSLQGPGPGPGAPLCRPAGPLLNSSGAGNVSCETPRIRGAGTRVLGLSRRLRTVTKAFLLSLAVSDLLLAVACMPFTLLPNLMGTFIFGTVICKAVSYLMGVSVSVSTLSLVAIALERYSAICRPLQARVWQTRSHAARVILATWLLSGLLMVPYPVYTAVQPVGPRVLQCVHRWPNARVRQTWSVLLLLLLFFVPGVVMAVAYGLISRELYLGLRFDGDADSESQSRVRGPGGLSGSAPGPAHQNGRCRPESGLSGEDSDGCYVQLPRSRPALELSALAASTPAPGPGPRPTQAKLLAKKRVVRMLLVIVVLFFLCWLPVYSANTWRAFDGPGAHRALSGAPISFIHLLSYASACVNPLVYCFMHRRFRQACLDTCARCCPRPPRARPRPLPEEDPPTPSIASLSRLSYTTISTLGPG

# molecule, IC50
measured = [
    ("CN1C(=O)C(NC(=O)Nc2cccc(C(=O)NS(=O)(=O)c3ccccc3)c2)N=C(c2ccncc2)c2ccccc21 (racemic)", "130 nM"),
    ("CC(C)S(=O)(=O)NC(=O)c1cccc(NC(=O)NC2N=C(c3ccncc3)c3ccccc3N(C)C2=O)c1 (racemic)", "300 nM"),
]
